- Study Target: human Class I PI3 kinase γ (Homo sapiens (Human), UniProt P48736)
- Sequence (P48736 whole entry, canonical isoform): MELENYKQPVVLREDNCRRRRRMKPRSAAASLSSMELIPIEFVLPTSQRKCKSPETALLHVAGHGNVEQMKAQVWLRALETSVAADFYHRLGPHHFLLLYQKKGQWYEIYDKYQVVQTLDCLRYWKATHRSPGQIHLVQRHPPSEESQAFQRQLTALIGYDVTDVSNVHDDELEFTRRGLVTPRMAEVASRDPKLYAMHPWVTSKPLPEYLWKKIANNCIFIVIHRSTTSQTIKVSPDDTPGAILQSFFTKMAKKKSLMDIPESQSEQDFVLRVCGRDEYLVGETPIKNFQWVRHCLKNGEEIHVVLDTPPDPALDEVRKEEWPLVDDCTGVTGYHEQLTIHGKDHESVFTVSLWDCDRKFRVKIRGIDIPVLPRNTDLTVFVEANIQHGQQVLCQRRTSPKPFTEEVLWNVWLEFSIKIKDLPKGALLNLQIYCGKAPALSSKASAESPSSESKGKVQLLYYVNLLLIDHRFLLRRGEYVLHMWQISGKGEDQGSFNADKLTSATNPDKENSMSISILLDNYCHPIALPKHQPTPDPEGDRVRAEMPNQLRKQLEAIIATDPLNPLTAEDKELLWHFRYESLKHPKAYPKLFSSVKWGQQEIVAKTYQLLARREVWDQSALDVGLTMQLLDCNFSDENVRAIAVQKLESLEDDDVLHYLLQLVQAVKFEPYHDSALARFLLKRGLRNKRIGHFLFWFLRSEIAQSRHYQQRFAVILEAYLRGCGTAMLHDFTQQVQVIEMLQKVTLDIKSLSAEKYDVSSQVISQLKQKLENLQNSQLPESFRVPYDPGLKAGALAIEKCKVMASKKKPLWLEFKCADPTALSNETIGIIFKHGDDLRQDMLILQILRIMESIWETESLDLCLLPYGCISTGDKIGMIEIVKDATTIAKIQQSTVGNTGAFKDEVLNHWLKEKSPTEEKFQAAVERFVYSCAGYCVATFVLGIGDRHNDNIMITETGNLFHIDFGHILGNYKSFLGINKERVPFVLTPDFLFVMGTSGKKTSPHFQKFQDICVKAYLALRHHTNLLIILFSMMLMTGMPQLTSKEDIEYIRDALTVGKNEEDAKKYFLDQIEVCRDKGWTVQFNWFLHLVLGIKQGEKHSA
- Assay Protocol: PI3-Kinase Promega ADP-Glo Max assay, γ isoform
- Condition Summary: 40 nM kinase, 3 mM ATP, 500 uM diC8-PtdInsP; read-out: Promega γ PI3K IC50
Measurement Name: IC50

In the examples that follow, each entry is paired with its recorded IC50.
[
  {
    "Compound": "C[C@H](NC(=O)c1c(N)nn2cccnc12)c1cc2cccc(-c3cnn(CC#N)c3)c2c(=O)n1-c1ccccc1 [Compound 48]",
    "IC50": "100 to 500 nM"
  },
  {
    "Compound": "C[C@H](NC(=O)c1nccnc1N)c1cc2cccc(C(F)(F)F)c2c(=O)n1-c1ccccc1 [Compound 52]",
    "IC50": "500 to 1000 nM"
  },
  {
    "Compound": "C[C@H](NC(=O)c1c(N)nn2cccnc12)c1cc2cccc(Cl)c2c(=O)n1CCc1cnn[nH]1 [Compound 63]",
    "IC50": "500 to 1000 nM"
  },
  {
    "Compound": "C[C@H](NC(=O)c1c(N)nn2cccnc12)c1cc2cccc(Cl)c2c(=O)n1-c1ccccc1NS(C)(=O)=O [Compound 78]",
    "IC50": "100 to 500 nM"
  },
  {
    "Compound": "C[C@H](NC(=O)c1c(N)nn2cccnc12)c1oc2ccc(F)cc2c(=O)c1-c1ccccc1 [Compound 96]",
    "IC50": "1000 to 10000 nM"
  },
  {
    "Compound": "C[C@H](NC(=O)c1c(N)nn2cccnc12)c1cc2cccc(Cl)c2c(=O)n1CCc1noc(C(C)(C)C)n1 [Compound 64]",
    "IC50": "1000 to 10000 nM"
  },
  {
    "Compound": "CCS(=O)(=O)NCCn1c([C@H](C)NC(=O)c2c(N)nn3cccnc23)cc2cccc(Cl)c2c1=O [Compound 61]",
    "IC50": "10 to 100 nM"
  },
  {
    "Compound": "C[C@H](NC(=O)c1c(N)nn2cccnc12)c1cc2cccc(CCc3cnn(C)c3)c2c(=O)n1-c1ccccc1 [Compound 66]",
    "IC50": "500 to 1000 nM"
  },
  {
    "Compound": "C[C@H](NC(=O)c1c(N)nn2cccnc12)c1cc2cccc(Cl)c2c(=O)n1-c1ccc(S(C)(=O)=O)cc1 [Compound 80]",
    "IC50": "1000 to 10000 nM"
  },
  {
    "Compound": "CC(=O)Cc1cccc2nc([C@H](C)NC(=O)c3c(N)nn4cccnc34)n(-c3ccccc3)c(=O)c12 [Compound 89]",
    "IC50": "500 to 1000 nM"
  }
]

Query block: Name the recorded IC50 for Cc1ccccc1-n1c([C@H](C)NC(=O)c2c(N)nn3cccnc23)cc2cccc(Cl)c2c1=O [Compound 73] .
Result block: 100 to 500 nM

Query block: Try this compound too: C#CCCn1c([C@H](C)NC(=O)c2c(N)nn3cccnc23)cc2cccc(Cl)c2c1=O [Compound 62]
Result block: 500 to 1000 nM

Query block: Now the compound Cc1ccc(-n2c([C@H](C)NC(=O)c3c(N)nn4cccnc34)cc3cccc(Cl)c3c2=O)cc1 [Compound 75]
Result block: 100 to 500 nM

Query block: Moving on to the next compound: C[C@H](NC(=O)c1c(N)nn2cccnc12)c1cc2cccc(Cl)c2c(=O)n1-c1cccc(NS(C)(=O)=O)c1 [Compound 79]
Result block: 100 to 500 nM
